// data source = patent US7335814B2

target: recombinant GTase A911 (Arabidopsis thaliana, UniProt O22182); experiment: Specific activity of recombinant GTase producing glucose ester against lignin precursors (HPLC); type: biochemical; set-up: made in house; host or cells: E. coli; conditions: 0.5 ml of potential substrates, 5 mM UDPG, 0.2 μg GTase, 200 μl, 20° C., 30 min
Sequence (O22182 whole entry): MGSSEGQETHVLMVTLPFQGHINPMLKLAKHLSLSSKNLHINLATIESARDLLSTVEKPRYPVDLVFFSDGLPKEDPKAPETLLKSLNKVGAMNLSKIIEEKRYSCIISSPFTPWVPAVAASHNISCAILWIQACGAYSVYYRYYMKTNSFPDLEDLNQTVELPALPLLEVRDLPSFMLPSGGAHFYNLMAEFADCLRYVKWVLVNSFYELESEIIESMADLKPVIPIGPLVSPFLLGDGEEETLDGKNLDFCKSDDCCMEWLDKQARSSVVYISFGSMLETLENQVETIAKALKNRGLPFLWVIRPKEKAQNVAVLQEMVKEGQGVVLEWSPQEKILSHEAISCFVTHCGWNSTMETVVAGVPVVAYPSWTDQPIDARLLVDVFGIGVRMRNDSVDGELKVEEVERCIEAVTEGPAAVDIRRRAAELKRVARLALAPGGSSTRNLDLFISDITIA
Overview of reported Specific activity of A911 (substrate converted to glucose ester) across a group of molecules:
PARAMETER: Specific activity of A911 (substrate converted to glucose ester) (nkat/mg)

MOLECULE: O=C(O)C=Cc1ccccc1
TARGET_SYSTEM: recombinant GTase A911 (Arabidopsis thaliana, UniProt O22182)
RECORDED_VALUE: 8.77
//
MOLECULE: O=C(O)/C=C/c1ccc(O)cc1
TARGET_SYSTEM: recombinant GTase A911 (Arabidopsis thaliana, UniProt O22182)
RECORDED_VALUE: 4.31
//
MOLECULE: COc1cc(/C=C/C(=O)O)cc(OC)c1O
TARGET_SYSTEM: recombinant GTase A911 (Arabidopsis thaliana, UniProt O22182)
RECORDED_VALUE: 0.15
//
MOLECULE: O=C(O)C=Cc1ccc(O)c(O)c1 [Caffeic acid, 3,4-dihydroxycinnamic acid]
TARGET_SYSTEM: recombinant GTase A911 (Arabidopsis thaliana, UniProt O22182)
RECORDED_VALUE: 0.77
//
MOLECULE: COc1cc(/C=C/C(=O)O)ccc1O
TARGET_SYSTEM: recombinant GTase A911 (Arabidopsis thaliana, UniProt O22182)
RECORDED_VALUE: 2.88
